The measurements presented in this section are drawn from patent US20230287598A1.

Molecular target: CXCR1 (UniProt P25024)
Sequence (P25024 whole entry): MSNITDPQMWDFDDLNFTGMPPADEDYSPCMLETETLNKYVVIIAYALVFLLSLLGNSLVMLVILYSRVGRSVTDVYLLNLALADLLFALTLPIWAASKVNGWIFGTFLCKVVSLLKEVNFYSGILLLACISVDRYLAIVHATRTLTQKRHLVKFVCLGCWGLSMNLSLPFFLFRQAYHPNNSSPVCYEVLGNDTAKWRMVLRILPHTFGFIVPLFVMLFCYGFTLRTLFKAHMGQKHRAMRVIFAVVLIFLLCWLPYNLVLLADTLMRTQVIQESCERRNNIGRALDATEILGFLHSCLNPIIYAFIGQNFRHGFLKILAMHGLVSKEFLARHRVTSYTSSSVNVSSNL
Assay: flow cytometry, CXCR1-U2OS / parental U2OS
property-label: CXCR1/Parental Ratio
Give only the figure.

{"binder": "VH4-34+CDR3-IL8 / V1-47 IgG (antibody, part only; not given: V1-47 light chain, part only) VH: QVQLQQWGAGLLKPSETLSLTCAVYGGSFSGYYWSWIRQPPGKGLEWIGEINHSGSTNYNPSLKSRVTISVDTSKNQFSLKLSSVTAADTAVYYCTSVHQETKKYQSPRSAKELRCQCIKTYSKPFHPKFIKELRVIESGPHCANTEIIVKLSDGRELCLDPKENWVQRVVEKFLKRAENSGSGSYTYNYEWHVDVWGQGLLVTVSSAS", "CXCR1/Parental Ratio": 2.6}

Form field: reported CXCR1/Parental Ratio of VH4-34+CDR3-IL8 / V1-51 IgG (antibody, part only; not given: V1-51 light chain, part only) VH: QVQLQQWGAGLLKPSETLSLTCAVYGGSFSGYYWSWIRQPPGKGLEWIGEINHSGSTNYNPSLKSRVTISVDTSKNQFSLKLSSVTAADTAVYYCTSVHQETKKYQSPRSAKELRCQCIKTYSKPFHPKFIKELRVIESGPHCANTEIIVKLSDGRELCLDPKENWVQRVVEKFLKRAENSGSGSYTYNYEWHVDVWGQGLLVTVSSAS
2.9
